System: pigweed (Amaranthus retroflexus)
protocol: Preemergence herbicidal activity
Format: in vivo
conditions.used: Amaranthus retroflexus, 504 h; Table 6 (headed Post-emergent; text: preemergence); rate 560 ppm; after 3 weeks; read-out: % Control AMARE
observation.type: pest or weed control at 560 ppm (%)
# number only, unit % dropped from output

Example entries and their recorded answers appear below.
smiles.string: Nc1cc(Oc2cccc(Cl)c2)nc(C(=O)O)c1Cl
system.name: pigweed (Amaranthus retroflexus)
pest or weed control at 560 ppm / %: 0

smiles.string: O=C(O)c1nc(Cl)cc(N2CCCC2)c1Cl
system.name: pigweed (Amaranthus retroflexus)
pest or weed control at 560 ppm / %: 80

smiles.string: Nc1c(F)c(Cl)nc(C(=O)O)c1Cl
system.name: pigweed (Amaranthus retroflexus)
pest or weed control at 560 ppm / %: 100

# input What does the record list as pest or weed control at 560 ppm for "O=C(O)c1nc(Cl)cc([N+](=O)[O-])c1Cl" ?
# output 100

# input Record request: pest or weed control at 560 ppm value, item "CC(C)COc1nc(C(=O)O)c(Cl)c(N)c1Cl"
# output 0

# input Could you share which pest or weed control at 560 ppm value was measured for "Nc1cc(Cl)nc(C(=O)O)c1Br" ?
# output 100

# input Suppose we examine the compound "Cc1cccc(Oc2cc(N)c(Cl)c(C(=O)O)n2)c1" ; what pest or weed control at 560 ppm value has been reported?
# output 20

# input Find the recorded pest or weed control at 560 ppm belonging to "COc1c(Cl)nc(C(=O)O)c(Cl)c1N" and report it.
# output 100

# input I am curious: what pest or weed control at 560 ppm value has been reported for "COc1c(C(=O)O)nc(Br)c(Cl)c1N" ?
# output 100

# input Look up pest or weed control at 560 ppm for this compound: "CCCCNc1cc(Cl)nc(C(=O)O)c1Cl"
# output 100

# input Fill in: pest or weed control at 560 ppm of "CN(C)c1cc(Cl)nc(C(=O)O)c1Cl" is ___
# output 100

###

In this section we review reported melting point values for a set of compounds.

Example entries and their recorded answers appear below.
compound: COC(=O)c1nc(Cl)c([N+](=O)[O-])c(N)c1Cl [Compound 25]
melting point: 127 to 128 °C
--
compound: Nc1c(F)c(C(=O)O)nc(Cl)c1Cl [Compound 43]
melting point: 208 °C (dec.)
--
compound: CCCCCCOC(=O)c1nc(Cl)cc(N)c1Cl [Compound 9]
melting point: 65 to 66 °C

# input Endpoint output: melting point of CCOC(=O)c1nc(Cl)cc(N)c1Cl [Compound 4] . Value?
# output 98 to 99 °C

# input For the compound shown here, CCCCNc1cc(Cl)nc(C(=O)O)c1Cl [Compound 29] , give the reported melting point.
# output 96 to 97 °C

###

observation.type: melting point

Study these solved cases before continuing.
molecule: Nc1cc(C(F)(F)F)nc(C(=O)O)c1Cl [Compound 46]
observation.type: melting point
reported.value: 131 to 133 °C

molecule: Nc1cc(Oc2ccccc2)nc(C(=O)O)c1Cl [Compound 48]
observation.type: melting point
reported.value: 178 °C

molecule: CCCOC(=O)c1nc(Cl)cc(N)c1Cl [Compound 5]
observation.type: melting point
reported.value: 94 to 95 °C

molecule: O=C(O)c1nc(Cl)cc(N2CCCC2)c1Cl [Compound 36]
observation.type: melting point
reported.value: 153 to 155 °C

molecule: CCCCOCCOC(=O)c1nc(Cl)cc(N)c1Cl (hydrate or solvate) [Compound 10]
observation.type: melting point
reported.value: 64 to 67 °C

# input Could you share which melting point value was measured for Cc1c(Br)nc(C(=O)O)c(Cl)c1N=[N+]=[N-] [Compound 38] ?
# output 84 to 86 °C

# input Give the measured melting point of CCCCC(CC)COC(=O)c1nc(Cl)cc(N)c1Cl (stereo not shown) [Compound 2] .
# output 55 °C

# input Give its melting point value. Item: O=C(O)c1nc(Cl)cc([N+](=O)[O-])c1Cl [Compound 39]
# output 192 to 193 °C

# input Which measured melting point value corresponds to Nc1c(F)c(Cl)nc(C(=O)O)c1Cl [Compound 19] ?
# output 214 °C (dec.)

# input What does the data say about its melting point? Entry: COc1c(Cl)nc(C(=O)O)c(Cl)c1N [Compound 22]
# output 154 to 156 °C
